# Tested on: Fibroblast
# protocolDescription: Multiplex assay against human fibroblast
# Type: toxicity, cell-based
# runParameters: 24 h, 10 µM, compound concentration 10 uM, replicate 1
# label = Condition met if Population Pyknosed Nuclei (%) < 20% else Condition not met

>>> grouplabel("CCc1cccc(CC)c1NC(=O)c1nn(C)c2c1CCc1cnc(Nc3ccc(N4CCN(C)CC4)cc3OC)nc1-2")
"Condition met"
>>> grouplabel("C=C1/C(=C\\C=C2/CCC[C@]3(C)[C@@H]([C@H](C)/C=C/[C@H](C)C(C)C)CC[C@@H]23)C[C@@H](O)C[C@@H]1O [DOXERCALCIFEROL]")
"Condition met"
>>> grouplabel("NC(=O)c1cccc(-c2cc(Nc3ccc(OC(F)(F)F)cc3)ncn2)c1")
"Condition met"
>>> grouplabel("Cc1cc(C)c(S(=O)(=O)N(Cc2ccc(-c3cccc(S(C)(=O)=O)c3)cc2)Cc2ccc(C(F)(F)F)o2)c(C)c1")
"Condition met"
>>> grouplabel("O=C(Nc1cccnn1)N1CCC(=Cc2cccc(Oc3ccc(C(F)(F)F)cn3)c2)CC1")
"Condition met"
>>> grouplabel("Cl.O=c1c2cccn2c2ccccc2n1CCCN1CCC(c2ccc(Cl)cc2)CC1")
"Condition not met"
>>> grouplabel("CN1CCC(=C2c3ccccc3CC(=O)c3sccc32)CC1.O=C(O)/C=C/C(=O)O [KETOTIFEN FUMARATE]")
"Condition met"
>>> grouplabel("Cn1nc(C(=O)NCc2ccc(C(=O)O)cc2)cc1-c1ccc2[nH]ccc2c1 [BI 4395]")
"Condition met"
>>> grouplabel("CN1C2CCC1CC(OC(c1ccc(F)cc1)c1ccc(F)cc1)C2.Cl (configuration not stated)")
"Condition met"
>>> grouplabel("CN(C)C(=O)C(CCN1CCC(O)(c2ccc(Cl)cc2)CC1)(c1ccccc1)c1ccccc1.Cl [LOPERAMIDE HYDROCHLORIDE]")
"Condition not met"
>>> grouplabel("O=C(Nc1ccc(-c2ccnc(Nc3ccc(N4CCOCC4)cc3)n2)cc1)[C@@H]1CCCN1")
"Condition met"
>>> grouplabel("Cc1ccc(C(=O)Nc2cccc(C(F)(F)F)c2)cc1Nc1nc(-c2cccnc2)nc2c1cnn2C")
"Condition not met"
>>> grouplabel("CCN1CCN(c2ccc(Nc3cc(N(C)C(=O)Nc4c(Cl)c(OC)cc(OC)c4Cl)ncn3)cc2)CC1 [INFIGRATINIB]")
"Condition met"
>>> grouplabel("CCc1cccc(CC)c1NC(=O)c1nn(C)c2c1CCc1cnc(Nc3ccc(C(=O)NC4CCN(C)CC4)cc3OC(F)(F)F)nc1-2")
"Condition not met"
>>> grouplabel("COC(=N)c1nc2ccc3ncnc(Nc4ccc(OC)cc4F)c3c2s1")
"Condition met"
>>> grouplabel("CCn1cc(-c2ccnc3[nH]c(-c4cccc(CN(C)C)c4)cc23)c(-c2ccc(NC(=O)N(C)C)cc2)n1 [GSK-1070916]")
"Condition not met"
>>> grouplabel("CCCS(=O)(=O)Nc1ccc(F)c(C(=O)c2c[nH]c3ncc(Cl)cc23)c1F [PLX-4720]")
"Condition met"
>>> grouplabel("CCCn1c(=O)c2[nH]c(-c3cnn(Cc4cccc(C(F)(F)F)c4)c3)nc2n(CC)c1=O [GS 6201]")
"Condition not met"
>>> grouplabel("COc1cc(N2CCN(C)CC2)ccc1Nc1ncc2c(n1)N(C)c1ccccc1C(=O)N2C")
"Condition met"
>>> grouplabel("CCCS(=O)(=O)c1nc(NC2CC2)cc(-c2ccc3c(ccn3C3CC(C)(C)NC(C)(C)C3)c2)n1")
"Condition not met"
>>> grouplabel("COc1ccc(-c2ccc3c(N4CCOCC4)nc(N4C[C@@H](C)O[C@@H](C)C4)nc3n2)cc1CO [Ku-0063794]")
"Condition met"
>>> grouplabel("COc1cc2ncnc(Nc3ccc(F)c(Cl)c3)c2cc1NC(=O)/C=C/CN1CCCCC1 [DACOMITINIB ANHYDROUS]")
"Condition met"
>>> grouplabel("Cc1cn(-c2cc(NC(=O)c3ccc(C)c(Nc4nccc(-c5cccnc5)n4)c3)cc(C(F)(F)F)c2)cn1 [NILOTINIB]")
"Condition met"
>>> grouplabel("COc1cccc2cc(-c3nc([C@H]4CC[C@H](C(=O)O)CC4)n4ncnc(N)c34)[nH]c12 [OSI-027]")
"Condition met"
>>> grouplabel("CCOc1cc2ncc(C#N)c(Nc3ccc(OCc4ccccn4)c(Cl)c3)c2cc1NC(=O)/C=C/CN(C)C [NERATINIB]")
"Condition not met"
>>> grouplabel("CCOc1cc(C(=O)N2CCC(N3CCN(C)CC3)CC2)ccc1Nc1ncc2c(n1)N(C1CCCC1)c1ccccc1C(=O)N2C")
"Condition not met"
>>> grouplabel("CCN1CCN(Cc2ccc(Nc3ncc(F)c(-c4cc(F)c5nc(C)n(C(C)C)c5c4)n3)nc2)CC1.CS(=O)(=O)O")
"Condition not met"
>>> grouplabel("O=C(Nc1ccc(-n2nc(-c3cccnc3)cc2C(F)(F)F)cn1)c1ccc(-c2ccccc2)c(F)c1 [BI 2049]")
"Condition not met"
>>> grouplabel("O=C1NC(=O)C(c2cnc3ccccn23)=C1c1cn2c3c(cc(F)cc13)CN(C(=O)N1CCCCC1)CC2 [LY-2090314]")
"Condition not met"
>>> grouplabel("S=C(NCCCc1c[nH]cn1)NCCCN(Cc1ccc(Cl)c(Cl)c1)c1ccc(Br)cn1")
"Condition not met"
>>> grouplabel("CNc1cc(Oc2cc(C(=O)Nc3cc(N4CCN(C)CC4)cc(C(F)(F)F)c3)ccc2C)ncn1")
"Condition not met"
>>> grouplabel("COc1ccc(S(=O)(=O)N(CCO)c2ccccc2CN(C)C/C=C/c2ccc(Cl)cc2)cc1.O=P(O)(O)O")
"Condition met"

Origin of values: ChEMBL document CHEMBL4689842
